Would you kindly list viability, T/C for each of these molecules?
system: MDA-MB-231 multicell spheroids, viability; test: Anticancer human tumor MDA-MB-231 cell line growth inhibition [PI3K]; conditions: second compound 0.316 µM; first compound 1 µM; active compounds read low
Kindly provide the numeric value in % only, without the unit symbol.

In: Lab note: need viability, T/C with MDA-MB-231 multicell spheroids, viability for entry Cn1ncc(Cl)c1-c1cc(C(=O)NC(CN)Cc2cccc(F)c2)sc1Cl (stereo not given) + CC(Nc1ccc2c(c1)OCCn1cc(N3C(=O)OCC3C(F)F)nc1-2)C(N)=O , please look it up.
Out: 53.4

In: Lab note: need viability, T/C with MDA-MB-231 multicell spheroids, viability for entry CCCS(=O)(=O)Nc1ccc(F)c(C(=O)c2c[nH]c3ncc(-c4ccc(Cl)cc4)cc23)c1F + CC(Nc1ccc2c(c1)OCCn1cc(N3C(=O)OCC3C(F)F)nc1-2)C(N)=O , please look it up.
Out: 54.7

In: Lab note: need viability, T/C with MDA-MB-231 multicell spheroids, viability for entry C=CC(=O)N1CCN(c2nc(=O)n(-c3c(C)ccnc3C(C)C)c3nc(-c4c(O)cccc4F)c(F)cc23)C(C)C1 (stereo not given) + Cc1nc(NC(=O)N2CCCC2C(N)=O)sc1-c1ccnc(C(C)(C)C(F)(F)F)c1 , please look it up.
Out: 82.8

In: Lab note: need viability, T/C with MDA-MB-231 multicell spheroids, viability for entry CNC(=O)c1ccc(N2C(=S)N(c3ccc(C#N)c(C(F)(F)F)c3)C(=O)C2(C)C)cc1F + CC(Nc1ncnc2nc[nH]c12)c1cc2cccc(Cl)c2c(=O)n1-c1ccccc1 , please look it up.
Out: 99.2

In: Lab note: need viability, T/C with MDA-MB-231 multicell spheroids, viability for entry CC(C)NCC(C(=O)N1CCN(c2ncnc3c2C(C)CC3O)CC1)c1ccc(Cl)cc1 (stereo not given) + Cc1nc(NC(=O)N2CCCC2C(N)=O)sc1-c1ccnc(C(C)(C)C(F)(F)F)c1 , please look it up.
Out: 63.4

====

tested on: MDA-MB-231 multicell spheroids, viability; assay: Anticancer human tumor MDA-MB-231 cell line growth inhibition [PI3K]; conditions: second compound 0.1 µM; first compound 10 µM; active means viability on the fitted dose curve at most 10% of control; inactive means the rest;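 also: spheroids exposed to agents for seven days before reading; percent of vehicle control luminescence with DMSO treated spheroids as 100%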
Thanks in advance; please answer with one of these: true (active), false (inactive)

In: Recorded call for Cn1nccc1Nc1nccc(-c2ccn(C(CO)c3ccc(Cl)c(F)c3)c(=O)c2)n1 (stereo not given) + CC(Nc1ncnc2nc[nH]c12)c1cc2cccc(Cl)c2c(=O)n1-c1ccccc1 ?
Out: false

In: Recorded call for C#Cc1c(F)ccc2cc(O)cc(-c3ncc4c(N5CC6CCC(C5)N6)nc(OCC56CCCN5CC(F)C6)nc4c3F)c12 (stereo not given) + CC(Nc1ccc2c(c1)OCCn1cc(N3C(=O)OCC3C(F)F)nc1-2)C(N)=O ?
Out: false

In: Recorded call for CC(Cn1ccc(-c2ccc(C#N)c(Cl)c2)n1)NC(=O)c1cc(C(C)O)[nH]n1 (stereo not given) + COc1c(OCCCN2CCOCC2)ccc2c3n(c(=NC(=O)c4cnc(N)nc4)nc12)CCN3 ?
Out: false

In: Recorded call for CC1(C)CCC(Nc2ncc(C(F)(F)F)c(-c3c[nH]c4c(P(C)(C)=O)c(C#N)ccc34)n2)CN1 (stereo not given) + Cc1nc(NC(=O)N2CCCC2C(N)=O)sc1-c1ccnc(C(C)(C)C(F)(F)F)c1 ?
Out: true

In: Recorded call for CC1(C)CCC(Nc2ncc(C(F)(F)F)c(-c3c[nH]c4c(P(C)(C)=O)c(C#N)ccc34)n2)CN1 (stereo not given) + COc1c(OCCCN2CCOCC2)ccc2c3n(c(=NC(=O)c4cnc(N)nc4)nc12)CCN3 ?
Out: false

====

Would you kindly list viability, T/C for each of these molecules?
system: MDA-MB-231 multicell spheroids, viability; assay: Anticancer human tumor MDA-MB-231 cell line growth inhibition [PI3K]; conditions: second compound 0.1 µM; first compound 0.00316 µM; active compounds read low;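 also: spheroids exposed to agents for seven days before reading; percent of vehicle control luminescence with DMSO treated spheroids as 100%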
Kindly provide the numeric value in % only, without the unit symbol.

In: Would you kindly share the measured viability, T/C for CC(C)n1nc(-c2ccc3oc(N)nc3c2)c2c(N)ncnc21 + COc1c(OCCCN2CCOCC2)ccc2c3n(c(=NC(=O)c4cnc(N)nc4)nc12)CCN3 ?
Out: 40.1

In: Would you kindly share the measured viability, T/C for CC(C)n1nc(-c2ccc3oc(N)nc3c2)c2c(N)ncnc21 + Cc1nc(NC(=O)N2CCCC2C(N)=O)sc1-c1ccnc(C(C)(C)C(F)(F)F)c1 ?
Out: 71.2

In: Would you kindly share the measured viability, T/C for Cn1ncnc1[C@H]1c2n[nH]c(=O)c3cc(F)cc(c23)N[C@@H]1c1ccc(F)cc1 + CC(Nc1ccc2c(c1)OCCn1cc(N3C(=O)OCC3C(F)F)nc1-2)C(N)=O ?
Out: 65

In: Would you kindly share the measured viability, T/C for CC(C)n1nc(-c2ccc3oc(N)nc3c2)c2c(N)ncnc21 + CC(Nc1ccc2c(c1)OCCn1cc(N3C(=O)OCC3C(F)F)nc1-2)C(N)=O ?
Out: 55.2

In: Would you kindly share the measured viability, T/C for CCN1CCN(Cc2ccc(Nc3ncc(F)c(-c4cc(F)c5nc(C)n(C(C)C)c5c4)n3)nc2)CC1 + COc1c(OCCCN2CCOCC2)ccc2c3n(c(=NC(=O)c4cnc(N)nc4)nc12)CCN3 ?
Out: 45.1

In: Would you kindly share the measured viability, T/C for Cn1ncnc1[C@H]1c2n[nH]c(=O)c3cc(F)cc(c23)N[C@@H]1c1ccc(F)cc1 + Cc1nc(NC(=O)N2CCCC2C(N)=O)sc1-c1ccnc(C(C)(C)C(F)(F)F)c1 ?
Out: 77.5

In: Would you kindly share the measured viability, T/C for CC(=O)c1c(C)c2cnc(Nc3ccc(N4CCNCC4)cn3)nc2n(C2CCCC2)c1=O + Cc1nc(NC(=O)N2CCCC2C(N)=O)sc1-c1ccnc(C(C)(C)C(F)(F)F)c1 ?
Out: 81.4

In: Would you kindly share the measured viability, T/C for CCN1CCN(Cc2ccc(Nc3ncc(F)c(-c4cc(F)c5nc(C)n(C(C)C)c5c4)n3)nc2)CC1 + CC(Nc1ncnc2nc[nH]c12)c1cc2cccc(Cl)c2c(=O)n1-c1ccccc1 ?
Out: 98.2

====

Would you kindly list viability, T/C for each of these compounds?
test system: MDA-MB-231 multicell spheroids, viability; assay: Anticancer human tumor MDA-MB-231 cell line growth inhibition [PI3K]; conditions: second compound 0.1 µM; first compound 10 µM; active compounds read low;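 also: spheroids exposed to agents for seven days before reading; percent of vehicle control luminescence with DMSO treated spheroids as 100%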
Kindly provide the numeric value in % only, without the unit symbol.

In: Would you kindly share the measured viability, T/C for CC(C)NCC(C(=O)N1CCN(c2ncnc3c2C(C)CC3O)CC1)c1ccc(Cl)cc1 (stereo not given) + CC(Nc1ccc2c(c1)OCCn1cc(N3C(=O)OCC3C(F)F)nc1-2)C(N)=O ?
Out: 38.2

In: Would you kindly share the measured viability, T/C for Cn1ncc(Cl)c1-c1cc(C(=O)NC(CN)Cc2cccc(F)c2)sc1Cl (stereo not given) + CC(Nc1ccc2c(c1)OCCn1cc(N3C(=O)OCC3C(F)F)nc1-2)C(N)=O ?
Out: 22

In: Would you kindly share the measured viability, T/C for CC1(C)CCC(CN2CCN(c3ccc(C(=O)NS(=O)(=O)c4ccc(NCC5CCOCC5)c([N+](=O)[O-])c4)c(Oc4cnc5[nH]ccc5c4)c3)CC2)=C(c2ccc(Cl)cc2)C1 + CC(Nc1ncnc2nc[nH]c12)c1cc2cccc(Cl)c2c(=O)n1-c1ccccc1 ?
Out: 26.6

In: Would you kindly share the measured viability, T/C for CCCS(=O)(=O)Nc1ccc(F)c(C(=O)c2c[nH]c3ncc(-c4ccc(Cl)cc4)cc23)c1F + CC(Nc1ccc2c(c1)OCCn1cc(N3C(=O)OCC3C(F)F)nc1-2)C(N)=O ?
Out: 23.9

In: Would you kindly share the measured viability, T/C for CCCS(=O)(=O)Nc1ccc(F)c(C(=O)c2c[nH]c3ncc(-c4ccc(Cl)cc4)cc23)c1F + Cc1nc(NC(=O)N2CCCC2C(N)=O)sc1-c1ccnc(C(C)(C)C(F)(F)F)c1 ?
Out: 32.6

====

tested on: MDA-MB-231 multicell spheroids, viability; assay: Anticancer human tumor MDA-MB-231 cell line growth inhibition [PI3K]; details: second compound 0.316 µM; first compound 0.1 µM; active compounds read low;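 also: spheroids exposed to agents for seven days before reading; percent of vehicle control luminescence with DMSO treated spheroids as 100%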
Property Label: viability, T/C (%)
Kindly provide the numeric value in % only, without the unit symbol.

In: Would you kindly share the measured viability, T/C for CC(C)NCC(C(=O)N1CCN(c2ncnc3c2C(C)CC3O)CC1)c1ccc(Cl)cc1 (stereo unspecified) + Cc1nc(NC(=O)N2CCCC2C(N)=O)sc1-c1ccnc(C(C)(C)C(F)(F)F)c1 ?
Out: 77.8

In: Would you kindly share the measured viability, T/C for CC(Cn1ccc(-c2ccc(C#N)c(Cl)c2)n1)NC(=O)c1cc(C(C)O)[nH]n1 (stereo unspecified) + Cc1nc(NC(=O)N2CCCC2C(N)=O)sc1-c1ccnc(C(C)(C)C(F)(F)F)c1 ?
Out: 71.6

In: Would you kindly share the measured viability, T/C for CC(C)n1nc(-c2ccc3oc(N)nc3c2)c2c(N)ncnc21 + CC(Nc1ccc2c(c1)OCCn1cc(N3C(=O)OCC3C(F)F)nc1-2)C(N)=O ?
Out: 19.9

In: Would you kindly share the measured viability, T/C for C=CC(=O)N1CCN(c2nc(=O)n(-c3c(C)ccnc3C(C)C)c3nc(-c4c(O)cccc4F)c(F)cc23)C(C)C1 (stereo unspecified) + COc1c(OCCCN2CCOCC2)ccc2c3n(c(=NC(=O)c4cnc(N)nc4)nc12)CCN3 ?
Out: 31.4

In: Would you kindly share the measured viability, T/C for CNC(=O)c1ccc(N2C(=S)N(c3ccc(C#N)c(C(F)(F)F)c3)C(=O)C2(C)C)cc1F + CC(Nc1ccc2c(c1)OCCn1cc(N3C(=O)OCC3C(F)F)nc1-2)C(N)=O ?
Out: 66.2

In: Would you kindly share the measured viability, T/C for CC(C)NCC(C(=O)N1CCN(c2ncnc3c2C(C)CC3O)CC1)c1ccc(Cl)cc1 (stereo unspecified) + CC(Nc1ncnc2nc[nH]c12)c1cc2cccc(Cl)c2c(=O)n1-c1ccccc1 ?
Out: 102

In: Would you kindly share the measured viability, T/C for CC(C)n1nc(-c2ccc3oc(N)nc3c2)c2c(N)ncnc21 + COc1c(OCCCN2CCOCC2)ccc2c3n(c(=NC(=O)c4cnc(N)nc4)nc12)CCN3 ?
Out: 18.5

In: Would you kindly share the measured viability, T/C for Cn1ncnc1[C@H]1c2n[nH]c(=O)c3cc(F)cc(c23)N[C@@H]1c1ccc(F)cc1 + CC(Nc1ccc2c(c1)OCCn1cc(N3C(=O)OCC3C(F)F)nc1-2)C(N)=O ?
Out: 47.7

In: Would you kindly share the measured viability, T/C for CCCS(=O)(=O)Nc1ccc(F)c(C(=O)c2c[nH]c3ncc(-c4ccc(Cl)cc4)cc23)c1F + CC(Nc1ccc2c(c1)OCCn1cc(N3C(=O)OCC3C(F)F)nc1-2)C(N)=O ?
Out: 68.4

In: Would you kindly share the measured viability, T/C for CC(Cn1ccc(-c2ccc(C#N)c(Cl)c2)n1)NC(=O)c1cc(C(C)O)[nH]n1 (stereo unspecified) + COc1c(OCCCN2CCOCC2)ccc2c3n(c(=NC(=O)c4cnc(N)nc4)nc12)CCN3 ?
Out: 30.3

In: Would you kindly share the measured viability, T/C for CNC(=O)c1ccc(N2C(=S)N(c3ccc(C#N)c(C(F)(F)F)c3)C(=O)C2(C)C)cc1F + Cc1nc(NC(=O)N2CCCC2C(N)=O)sc1-c1ccnc(C(C)(C)C(F)(F)F)c1 ?
Out: 77.5
